tested.system: Human M2 PK (Homo sapiens)
Construct: used as a template to generate the full-length human M2 PK enzyme; His tag (pET-28a(+) vector) (N); made in house; host or cells: E. coli BL-21 (DE3)
Sequence (P14618 whole entry): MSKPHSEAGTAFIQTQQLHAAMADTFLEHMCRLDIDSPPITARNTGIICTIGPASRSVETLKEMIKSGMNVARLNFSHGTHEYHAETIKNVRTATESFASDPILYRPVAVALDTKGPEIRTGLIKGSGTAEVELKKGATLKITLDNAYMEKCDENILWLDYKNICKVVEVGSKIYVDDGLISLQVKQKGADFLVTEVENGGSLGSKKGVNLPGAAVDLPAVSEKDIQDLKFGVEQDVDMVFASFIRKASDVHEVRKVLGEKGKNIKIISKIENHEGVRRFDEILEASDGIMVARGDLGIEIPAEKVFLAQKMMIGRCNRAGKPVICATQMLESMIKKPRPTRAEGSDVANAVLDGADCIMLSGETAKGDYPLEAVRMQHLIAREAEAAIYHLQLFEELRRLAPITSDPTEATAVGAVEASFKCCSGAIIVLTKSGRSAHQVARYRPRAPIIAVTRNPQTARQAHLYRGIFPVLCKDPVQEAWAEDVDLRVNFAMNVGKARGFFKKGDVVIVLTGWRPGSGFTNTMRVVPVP
measurement.notes: Human PK selectivity, LDH-coupled enzyme assay
Format: biochemical
conditions.used: at 10 μM; read-out: % Inhibition Human M2
Some compounds, each annotated with its measured inhibition at 10 µM.

Guide cases for inhibition at 10 µM, answers given:
> print(dat)
                                   compound               tested.system  observed
1  Brc1ccc2cc(-c3nc4ccccc4s3)[nH]c2c1 [Compound 22a]  Human M2 PK (Homo sapiens)        3%
2  CN1CCN(CCn2c(-c3cc4ccc(Br)cc4[nH]3)cc3cc(Br)ccc32)CC1 [Compound 20a]  Human M2 PK (Homo sapiens)      1.7%
3  Brc1ccc2[nH]c(C#Cc3cc4ccc(Br)cc4[nH]3)cc2c1 [Compound 25c]  Human M2 PK (Homo sapiens)      8.7%
4  Brc1ccc2cc(/C=C/c3cc4ccccc4[nH]3)[nH]c2c1 [Compound 27a]  Human M2 PK (Homo sapiens)     -0.9%
5  Cn1c(-c2cc3ccc(Br)cc3[nH]2)cc2cc(Br)ccc21 [Compound 12a]  Human M2 PK (Homo sapiens)      9.1%

Consider the compound Brc1ccc2cc(-c3cc4ccccc4o3)[nH]c2c1 [Compound 22b, 2-(Benzofuran-2-yl)-6-bromo-1H-indole] . State its measured inhibition at 10 µM. 0.4%

Read the entry Brc1ccc2[nH]c(-c3cc4ccc(Br)cc4[nH]3)cc2c1 [Compound 10c, 5,6-Bibromo-1H,1′H-2,2′-biiindole] and write its reported inhibition at 10 µM. 8.7%

###

System: S. aureus ATCC 29213
measurement.notes: In vitro susceptibility, broth microdilution MIC
Assay type: cell-based, Staphylococcus aureus
conditions.used: Staphylococcus aureus, ATCC29213, Table 8; tested at least in duplicate, differing values all given; read-out: MIC
readout.label: MIC

> print(dat)
                                     smiles  readout.label    observed
1  O=C(c1c(CCc2ccc(Cl)nc2)[nH]c2cc(Br)ccc12)C(F)(F)F            MIC  > 64 µg/mL

Check the records and state MIC for COC(=O)c1c(C(=O)Nc2ccc(OC)cc2)[nH]c2cc(Br)ccc12 > 64 µg/mL

Output MIC of Clc1cnc(C#Cc2cc3ccc(Br)cc3[nH]2)nc1 > 64 µg/mL

Give reported MIC value for Brc1cncc(CCc2cc3ccc(Br)cc3[nH]2)c1 > 64 µg/mL

Quick one: give measured MIC for Clc1ccc(/C=C/c2cc3ccc(Br)cc3[nH]2)nc1 > 64 µg/mL

For the compound O=[N+]([O-])c1cc(/C=C/c2cc3ccc(Br)cc3[nH]2)ccc1Cl , give its reported MIC. > 64 µg/mL

State, in one line, measured MIC of Cc1c(/C=C/c2ccc(Cl)cc2)[nH]c2cc(Br)ccc12 > 64 µg/mL

Complete the entry with MIC for Fc1cc2cc(/C=C/c3ccc(Cl)cc3)[nH]c2cc1Br > 64 µg/mL

Recall and state the measured MIC for O=C(Nc1ccc(Cl)cc1)c1cc2ccc(Br)cc2[nH]1 . > 64 µg/mL

Indicate the recorded MIC value for this compound: COC(=O)c1cc(Br)cc2[nH]c(/C=C/c3ccc(Cl)cc3)cc12 > 64 µg/mL

Answer with the recorded MIC of Brc1ccc2cc(/C=C/c3cn4ccccc4n3)[nH]c2c1 only. > 64 µg/mL

Values compiled from patent US20170216252A1.
